Molecular target: T1, cynomolgus SIRPβ1v3 extracellular domain + His-tag (XP_005568593) (cynomolgus monkey)
T1 construct: also called Cyno SIRPβ1v3; cynoSIRPβ1v3
T1 chain: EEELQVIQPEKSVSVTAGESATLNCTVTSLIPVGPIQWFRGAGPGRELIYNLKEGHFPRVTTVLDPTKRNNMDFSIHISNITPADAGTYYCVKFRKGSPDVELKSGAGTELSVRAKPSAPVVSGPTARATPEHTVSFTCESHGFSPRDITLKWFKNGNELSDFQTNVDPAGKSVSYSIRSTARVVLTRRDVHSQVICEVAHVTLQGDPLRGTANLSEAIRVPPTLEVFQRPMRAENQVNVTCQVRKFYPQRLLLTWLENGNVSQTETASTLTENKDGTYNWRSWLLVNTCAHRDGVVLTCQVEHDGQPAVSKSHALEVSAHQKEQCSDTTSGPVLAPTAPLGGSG
Experiment: SPR, Ab captured, ECD-His analyte
Quick list: Kd per entry.
outcome-measure: Kd (nM)

binder	measured-number
Antibody A7 (antibody, human IgG1, kappa, L234A L235A, V domains shown) VH: EVQLVESGGGLVQPGGSLRLSCAASGFTLSSYDMHWVRQATGKGLEWVSAIGTAGDTYYTGSVKGRFTISRENAKNSLYLQMNSLRAGDTAVYYCVRGGVWDDAFDIWGQGTMVTVSS VL: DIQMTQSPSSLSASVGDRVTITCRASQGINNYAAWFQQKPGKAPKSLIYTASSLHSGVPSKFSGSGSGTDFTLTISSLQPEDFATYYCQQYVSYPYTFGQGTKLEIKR	494
Antibody A5 (antibody, human IgG1, kappa, L234A L235A, V domains shown) VH: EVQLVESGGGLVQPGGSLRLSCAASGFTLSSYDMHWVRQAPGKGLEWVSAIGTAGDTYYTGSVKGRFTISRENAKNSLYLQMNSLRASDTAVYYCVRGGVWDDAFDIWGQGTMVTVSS VL: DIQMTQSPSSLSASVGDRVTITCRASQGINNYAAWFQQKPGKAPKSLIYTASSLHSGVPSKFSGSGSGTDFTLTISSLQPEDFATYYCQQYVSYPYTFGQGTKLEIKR	465
Antibody A6 (antibody, human IgG1, kappa, L234A L235A, V domains shown) VH: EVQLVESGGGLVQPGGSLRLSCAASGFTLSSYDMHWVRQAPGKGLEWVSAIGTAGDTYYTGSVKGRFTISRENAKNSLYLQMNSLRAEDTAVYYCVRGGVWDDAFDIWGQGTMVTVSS VL: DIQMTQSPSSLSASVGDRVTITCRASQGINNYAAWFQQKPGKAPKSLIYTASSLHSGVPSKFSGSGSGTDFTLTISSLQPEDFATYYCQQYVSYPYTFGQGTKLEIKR	469
